Reported half-life by item:
Test system: human liver microsomes, metabolic stability half-life
Experiment: NCATS Human Liver Microsomal (HLM) Stability Profiling
Conditions: higher = more stable; screened at 1 µM (by protocol)

Compound	Test System	Readout Qualifier	half-life (h)
CN(C(=O)c1ccc(F)cc1C(F)(F)F)C1CCN(c2nnc(-c3ccnn3C)c3ccccc23)CC1	human liver microsomes, metabolic stability half-life	=	0.504
NC(=O)C1(N2CCCCC2)CCN(CCCC(=O)c2ccc(F)cc2)CC1	human liver microsomes, metabolic stability half-life	=	1.68
CNCCCC12CCC(c3ccccc31)c1ccccc12	human liver microsomes, metabolic stability half-life	>	2
O=C(O)c1cccc(CN2C(=O)/C(=C(\c3ccccc3)c3ccc(Cl)cc3)c3ccccc32)c1	human liver microsomes, metabolic stability half-life	>	2
CCN1CCC[C@H]1CNC(=O)c1c(O)c(Cl)cc(Cl)c1OC	human liver microsomes, metabolic stability half-life	>	2
CCSC(=O)N1CCCCCC1	human liver microsomes, metabolic stability half-life	=	0.462
CCn1c(-c2nonc2N)nc2c(C#CCO)ncc(OCCCN)c21	human liver microsomes, metabolic stability half-life	>	2
O=C(NN1CCCC1)NS(=O)(=O)c1ccc(Cl)cc1	human liver microsomes, metabolic stability half-life	>	2
COc1ccc(-c2oc3cc(OC)ccc3c2C(=O)c2ccc(C#N)cc2)cc1	human liver microsomes, metabolic stability half-life	=	0.343
CCN(Cc1ccncc1)C(=O)[C@@H](CO)c1ccccc1	human liver microsomes, metabolic stability half-life	>	2
CC(C)C(Br)C(=O)NC(N)=O (configuration not stated)	human liver microsomes, metabolic stability half-life	>	2
Cc1ccc2c(c1)C(=O)[C@]1(O)CCN(c3ccccc3)C1=N2	human liver microsomes, metabolic stability half-life	=	0.0285

###

Reported half-life by item:
Test system: human liver microsomes, metabolic stability half-life
Assay: NCATS Human Liver Microsomal (HLM) Stability Profiling
Details: higher = more stable; screened at 1 µM (by protocol)
Value Type: half-life (h)

Compound	Value Type	Readout Qualifier	Observed Value
CCCc1ccc(C(=O)O)cc1	half-life	>	2
COc1ccc(OC)c(C2C(C#N)=C(N)Oc3n[nH]c(-c4ccc5ccccc5c4)c32)c1 (stereo not given)	half-life	>	2
O=C(O)c1ccc(Nc2ncc3c(n2)-c2ccc(Cl)cc2C(c2c(F)cccc2F)=NC3)cc1	half-life	=	0.782
COc1ccc2c3c1O[C@H]1[C@@H](O)C=C[C@H]4[C@@H](C2)N(C)CC[C@@]341	half-life	=	1.87
c1ccc2c(c1)CCC[C@H]2C1=NCCN1	half-life	>	2

###

System: human liver microsomes, metabolic stability half-life
Assay: NCATS Human Liver Microsomal (HLM) Stability Profiling
Conditions: higher = more stable; screened at 1 µM (by protocol)
Binary classification by half-life, with 30 min as an inclusive lower bound for MET; all other cases are NOT MET.

Compound Smiles	Label Class
Nc1nc(O)c(C2=C3C(=Nc4ccccc43)C(=O)NCC2)[nH]1	MET
CN(C)CCN1C(=O)c2ccccc2N(C)c2ccccc21	MET
O=C(NCCN1CCN(c2cccc3c2OCCO3)CC1)c1ccc(F)cc1	MET
NC(=O)c1ccc(F)c2c1C[C@@H](N(C1CCC1)C1CCC1)CO2	NOT MET
Cc1nn(CC(=O)NCCc2ccccc2)c(=O)c2c1sc1ccccc12	NOT MET
O=C1c2ccccc2S(=O)(=O)N1CCCCN1CCN(c2ncccn2)CC1	NOT MET
CCOCCCNC(=O)C(=O)Nc1c2c(nn1-c1ccc(OC)cc1)CSC2	MET
CC(C)(C)c1coc([C@@H]2COCCN2Cc2ccc(C(=O)O)cc2)n1	MET

Where do the numbers come from? From PubChem BioAssay AID1963597.
